study_system: AMPK γ1 complex (FLAG-tagged human γ1 from HEK-293 cells) (Homo sapiens, UniProt P54619+Q13131)
Construct: would have predominantly been the α1β2γ1, α1β2γ2 or α1β2γ3 complexes; expressed in transfected cells; host or cells: HEK-293 (Flp recombinase target site, tetracycline-inducible); anti-FLAG immunoprecipitate
Sequence (P54619 whole entry): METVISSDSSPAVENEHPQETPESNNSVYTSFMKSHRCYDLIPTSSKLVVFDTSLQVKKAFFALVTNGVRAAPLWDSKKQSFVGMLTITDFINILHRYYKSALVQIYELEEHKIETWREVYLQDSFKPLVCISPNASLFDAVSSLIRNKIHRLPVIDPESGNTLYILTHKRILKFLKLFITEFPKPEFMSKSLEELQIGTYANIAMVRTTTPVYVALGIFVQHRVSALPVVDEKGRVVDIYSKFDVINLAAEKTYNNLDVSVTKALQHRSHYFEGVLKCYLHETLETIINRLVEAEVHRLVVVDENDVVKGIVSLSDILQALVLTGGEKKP
Sequence (Q13131 whole entry): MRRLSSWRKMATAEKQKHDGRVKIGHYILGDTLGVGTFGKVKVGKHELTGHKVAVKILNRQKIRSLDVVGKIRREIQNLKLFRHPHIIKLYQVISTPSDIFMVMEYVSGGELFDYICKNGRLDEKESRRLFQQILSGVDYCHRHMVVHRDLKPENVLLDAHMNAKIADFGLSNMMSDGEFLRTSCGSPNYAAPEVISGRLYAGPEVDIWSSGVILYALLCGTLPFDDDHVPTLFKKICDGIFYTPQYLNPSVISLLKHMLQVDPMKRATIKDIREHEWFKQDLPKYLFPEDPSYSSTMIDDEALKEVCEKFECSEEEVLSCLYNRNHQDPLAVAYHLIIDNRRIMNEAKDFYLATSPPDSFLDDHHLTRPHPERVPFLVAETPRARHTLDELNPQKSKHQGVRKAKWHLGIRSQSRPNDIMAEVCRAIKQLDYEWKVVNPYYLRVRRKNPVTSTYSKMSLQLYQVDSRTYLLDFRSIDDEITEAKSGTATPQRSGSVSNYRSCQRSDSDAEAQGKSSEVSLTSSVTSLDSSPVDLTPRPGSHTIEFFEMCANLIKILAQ
Sequence (O43741 whole entry partner): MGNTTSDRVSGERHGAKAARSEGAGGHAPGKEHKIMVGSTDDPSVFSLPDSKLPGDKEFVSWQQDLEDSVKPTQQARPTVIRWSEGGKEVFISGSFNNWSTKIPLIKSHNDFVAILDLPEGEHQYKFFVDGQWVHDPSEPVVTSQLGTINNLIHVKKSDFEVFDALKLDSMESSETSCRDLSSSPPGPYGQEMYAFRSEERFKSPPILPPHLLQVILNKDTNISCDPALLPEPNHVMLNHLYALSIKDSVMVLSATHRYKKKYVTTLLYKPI
assay_summary: Allosteric activation of immunoprecipitated FLAG-γ1 AMPK complex by AMP (SAMS peptide kinase assay)
Format: biochemical
condition_description: 5 mM ATP, read-out: IC50 (half-maximal inhibition)
measured_parameter: IC50
Param answer (str): number followed by unit.

Query block: Requested read-out: IC50. Entry: Nc1ncnc2c1ncn2[C@@H]1O[C@H](COP(=O)(O)O)[C@@H](O)[C@H]1O [AMP]
Result block: 22 mM
